B1: HEEH_KT_rd6_0790 (parent)
chain: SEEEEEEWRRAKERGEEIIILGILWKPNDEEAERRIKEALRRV

Variants of: B1
Assay: folding stability dG (cDNA display proteolysis); higher = more stable
Conditions: PBS, room temperature
measuredQuantity: folding stability dG
# output: number + unit

Solved cases below.
mutationLabel: E16A
endpointResult: 1.7 kcal/mol

mutationLabel: I20W
endpointResult: 1.17 kcal/mol

mutationLabel: E16K
endpointResult: 1.96 kcal/mol

mutationLabel: I20K
endpointResult: 0.813 kcal/mol

mutationLabel: W25C
endpointResult: 1.26 kcal/mol

Tell us which folding stability dG value is on record for `R34G`
1.63 kcal/mol

Tell us which folding stability dG value is on record for `R42S`
1.92 kcal/mol

Tell us which folding stability dG value is on record for `S1N`
2.18 kcal/mol

Tell us which folding stability dG value is on record for `K37T`
2.4 kcal/mol

Tell us which folding stability dG value is on record for `V43A`
2.38 kcal/mol

Tell us which folding stability dG value is on record for `G15I`
1.34 kcal/mol

Where do these numbers come from? They come from the MegaScale stability set (Tsuboyama et al. 2023).
